Here the recorded folding stability dG is given for each entry.
B1: EEHEE_rd4_0003 (parent)
chain: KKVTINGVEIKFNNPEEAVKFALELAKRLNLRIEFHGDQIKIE

Variants of: B1
Test: folding stability dG (cDNA display proteolysis); higher = more stable
Conditions: PBS, room temperature
Numeric answer only, unit kcal/mol assumed.

[[record]]
mutation_id = "R32C"
attribute_measured = "folding stability dG"
quantitative_readout = 2.81

[[record]]
mutation_id = "K20N"
attribute_measured = "folding stability dG"
quantitative_readout = 2.13

[[record]]
mutation_id = "V8D"
attribute_measured = "folding stability dG"
quantitative_readout = 1.65

[[record]]
mutation_id = "E24A"
attribute_measured = "folding stability dG"
quantitative_readout = 2.88

[[record]]
mutation_id = "V3D"
attribute_measured = "folding stability dG"
quantitative_readout = 1.7


Query: Suppose we examine the variant "L29E" ; what folding stability dG value has been reported?
Reply: 1.66

Query: Suppose we examine the variant "I33S" ; what folding stability dG value has been reported?
Reply: 0.908

Query: Suppose we examine the variant "A26P" ; what folding stability dG value has been reported?
Reply: 1.19

Query: Suppose we examine the variant "A18L" ; what folding stability dG value has been reported?
Reply: 2.59

Query: Suppose we examine the variant "A26S" ; what folding stability dG value has been reported?
Reply: 2.23

Query: Suppose we examine the variant "H36M" ; what folding stability dG value has been reported?
Reply: 2.72

Query: Suppose we examine the variant "E9M" ; what folding stability dG value has been reported?
Reply: 2.62

Query: Suppose we examine the variant "K1M" ; what folding stability dG value has been reported?
Reply: 3.33

Query: Suppose we examine the variant "I42Q" ; what folding stability dG value has been reported?
Reply: 1.24

Where these numbers come from: the MegaScale stability set (Tsuboyama et al. 2023)
